# System: A549
# protocol: Inhibition ratio against A-549 cancer cell growth at a concentration of 10e-5 mol/L
# Type: functional, Homo sapiens
Assign Ratio to each entry below.
Could you respond with only the numeric value?

input: Look up Ratio: COc1ccccc1C=C1c2ccccc2C(=O)c2ccccc21
output: 81.7

input: Look up Ratio: Cc1ccccc1C=C1c2ccccc2C(=O)c2ccccc21
output: 84.8

input: Look up Ratio: Cc1ccc(C=C2c3ccccc3C(=O)c3ccccc32)cc1
output: 91.8

input: Look up Ratio: O=C1c2ccccc2C(=Cc2cccc(Cl)c2)c2ccccc21
output: 92

input: Look up Ratio: Cc1cccc(C=C2c3ccccc3C(=O)c3ccccc32)c1
output: 18.2

input: Look up Ratio: O=C1c2ccccc2C(=Cc2ccccc2)c2ccccc21
output: 79.9

input: Look up Ratio: COc1cccc(C=C2c3ccccc3C(=O)c3ccccc32)c1
output: 92.5

input: Look up Ratio: COc1ccc(C=C2c3ccccc3C(=O)c3ccccc32)cc1
output: 84.7

input: Look up Ratio: O=C1c2ccccc2C(=Cc2cccc([N+](=O)[O-])c2)c2ccccc21
output: 91.8

input: Look up Ratio: O=C1c2ccccc2C(=Cc2ccc(Cl)cc2)c2ccccc21
output: 87.3

input: Look up Ratio: O=C1c2ccccc2C(=Cc2ccccc2O)c2ccccc21
output: 94.8

input: Look up Ratio: O=C1c2ccccc2C(=Cc2ccc(F)cc2)c2ccccc21
output: 88.2
